Taken from PubChem BioAssay (Tox21).

Test: qHTS assay to identify small molecule antagonists of the peroxisome proliferator-activated receptor gamma (PPARg) signaling pathway - cell viability counter screen (AID 743194); note: nearly all actives have a fitted effect of over 55% in size
Conditions: PPARg-bla HEK293H viability, CellTiter-Glo luminescence, 17 h, co-treated with 50 nM rosiglitazone; series mostly up to 62.6 µM
Results filed as inconclusive are left out. Calls of active or inactive are those of the source. Calls come from the whole dose curve; as a rule, active = well fitted cell-killing curve with a large enough effect in the repeat runs; inconclusive = weak or mixed curves, or effect the other way; inactive = no such curve, though single readings can be large or run the other way.
# valid calls are true for active, false for inactive; nothing else

Example entries and their recorded answers appear below.
1) Cc1c(C)c2c(c(C)c1O)CCC(C)(COc1ccc(CC3SC(=O)NC3=O)cc1)O2 (stereo not given) | false
2) CO[Si](CCCNc1ccccc1)(OC)OC | false
3) O=C(Oc1ccccc1)c1ccccc1C(=O)Oc1ccccc1 | false
4) CN1CCC(Nc2ncc3ncnc(Nc4ccc(F)c(Cl)c4)c3n2)CC1 | false
5) CC1=C(C(=O)OC(C)C)C(c2cccc([N+](=O)[O-])c2)C(C(=O)OC2CN(C(c3ccccc3)c3ccccc3)C2)=C(N)N1 (stereo not given) | true
6) CSc1ccc(/C=C2/C(C)=C(CC(=O)O)c3cc(F)ccc32)cc1 | false
7) CN(C)C(=O)C1(N2CCCCC2)CCN(CC[C@@]2(c3ccc(Cl)c(Cl)c3)CN(C(=O)c3ccccc3)CCO2)CC1 | true
8) O=C(N/N=C/c1ccccc1O)c1ccncc1 | false

Query block: Name the outcome recorded for CCCCN(CCCC)c1ccc(C(=O)c2ccccc2C(=O)O)c(O)c1 in the assay.
Result block: true

Query block: Name the outcome recorded for CCCC(C)c1ccccc1O (stereo not given) in the assay.
Result block: false
